Biological target: PD-L1 (antigen of the kinetic measurements) (human, UniProt Q9NZQ7)
Sequence (Q9NZQ7 19-238 limits assumed): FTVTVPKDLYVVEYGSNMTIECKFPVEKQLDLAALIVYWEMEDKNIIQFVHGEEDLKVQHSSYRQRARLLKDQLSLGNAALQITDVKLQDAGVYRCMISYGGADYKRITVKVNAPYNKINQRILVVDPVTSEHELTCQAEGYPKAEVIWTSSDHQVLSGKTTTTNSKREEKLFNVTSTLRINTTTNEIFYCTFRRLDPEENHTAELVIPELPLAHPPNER
Assay: kinetic measurements for aPDL1 antibodies; instrument and antigen format not stated
VALUE KIND: kon

{"BINDER": "1A6 (antibody, V domains shown, anti-PD-L1 clone; also called Ab 1A6) VH: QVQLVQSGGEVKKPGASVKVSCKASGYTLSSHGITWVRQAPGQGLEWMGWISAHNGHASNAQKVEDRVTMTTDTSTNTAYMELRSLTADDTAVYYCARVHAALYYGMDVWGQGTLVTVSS VL: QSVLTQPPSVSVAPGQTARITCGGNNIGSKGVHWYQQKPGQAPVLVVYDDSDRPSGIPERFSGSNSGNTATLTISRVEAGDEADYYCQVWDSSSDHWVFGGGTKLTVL", "VALUE KIND": "kon", "RESULT": "12400 M⁻¹ s⁻¹"}
{"BINDER": "1D1 (antibody, V domains shown, anti-PD-L1 clone; also called Ab 1D1) VH: QVQLVQSGAEVKKPGASVKVSCKASGYTFTSYGISWVRQAPGQGLEWMGWISAYNGHASNAQKVEDRVTMTTDTSTNTAYMELRNLTTDDTAVYYCARVHAALYYGMDVWGQGTTVTVSS VL: SYELTQPPSVSVAPGQTARITCGGDNIGSKGVHWYQQTPGQAPVLVVYDDSDRPSGIPERFSGSKSGNTATLTISRVEAGDEADYYCQVWDSRSDHWVFGGGTRVTVL", "VALUE KIND": "kon", "RESULT": "1.22e+06 M⁻¹ s⁻¹"}
{"BINDER": "1B4 (antibody, V domains shown, anti-PD-L1 clone; also called Ab 1B4) VH: QVQLVQSGGGLVKPGGSLRLSCVGSDFAFSSAWMNWVRQAPGKGLEWVGRIKSKTDGETTDYAAPVKDRFIISRDDSKNTLYLEMNSLKTEDTGVYYCTTGGLGLVYPYYNYIDVWGEGTTVTVSS VL: LPVLTQPPSASGTPGQRVTISCSGSSSNIGSNYVYWYQQLPGTAPKLLIYRNNQRPSGVPDRFSGSKSGTSASLAISGLRSEDEADYYCAAWDDSLNGLVFGTGTRVTVL", "VALUE KIND": "kon", "RESULT": "1.85e+06 M⁻¹ s⁻¹"}
{"BINDER": "1F1 (antibody, V domains shown, anti-PD-L1 clone; also called Ab 1F1) VH: QVQLVQSGGEVKKPGASVKVSCKASGYTLSSHGITWVRQAPGQGLEWMGWISAHNGHASNAQKVEDRVTMTTDTSTNTAYMELRSLTPDDTAVYYCARVHAALYYGMDVWGQGTLVTVSS VL: QPVLTQPPSVSVAPGQTARITCGGDNIGSKGVHWLQQKPGQAPVLVVYDDRDRPSGIPERFSGSNSGSTATLTISRVEAGDEADYYCQVWDSSSDHWVFGGGTKLTVL", "VALUE KIND": "kon", "RESULT": "733000 M⁻¹ s⁻¹"}
{"BINDER": "1A3 (antibody, V domains shown, anti-PD-L1 clone; also called Ab 1A3) VH: EVQLVQSGAEVKKPGASVKVSCKASGYTLSSHGITWVRQAPGQGLEWMGWISAHNGHASNAQKVEDRVTMTTDTSTNTAYMELRSLTPDDTAVYYCARVHAALYYGMDVWGQGTLVTVSS VL: LPVLTQPPSVSVAPGQTARITCGGNNIGSKSVHWYQQKPGQAPVLVVYDDSDRPSGIPERFSGSNSGNTATLTISRVEAGDEADYYCQVWDSSSDHWVFGGGTKLTVL", "VALUE KIND": "kon", "RESULT": "13100 M⁻¹ s⁻¹"}
